# Procedure summary: Biodistribution in SCID mice bearing AsPC-1 xenografts
# Format: in vivo
# Applied conditions: male, mouse, AsPC-1 tumor, iv, 3 pmol, total radioactivity, 4 h pi, Controls, read-out: uptake in AsPC-1 Tumor
Peptide text beside a SMILES is read from it. * marks the point of attachment. Palmitoyl = CCCCCCCCCCCCCCCC(=O)*; X1 = NCCNCC(CNCCN)C(=O)*
Measured property: tissue uptake at 4 h (%ID/g)
Express it in %ID/g; write the number only.

Bench note: what tissue uptake at 4 h did CCCCCCCCCCCCCCCC(=O)NCCCC[C@H](NC(=O)C(CNCCN)CNCCN)C(=O)N[C@@H](CCCNC(=N)N)C(=O)N[C@@H](CCCNC(=N)N)C(=O)N1CCC[C@H]1C(=O)N[C@@H](Cc1ccc(O)cc1)C(=O)N[C@H](C(=O)N[C@@H](CC(C)C)C(=O)O)[C@@H](C)CC [[^99mTc]Tc-DT9, metal not drawn] (X1-K(Palmitoyl)RRPYIL-OH) show?
6.15

---

# Procedure summary: Biodistribution in SCID mice bearing AsPC-1 xenografts
# Assay type: in vivo
# Applied conditions: male, mouse, lungs, iv, 3 pmol, total radioactivity, 4 h pi, Controls, read-out: uptake in Lungs
# Experimental: Twenty male severe combined immunodeficiency (SCID) mice (23.1 ± 1.6 g body weight, six weeks of age on arrival day; NCSR “Demokritos” Animal House, Athens, Greece) were used in the biodistribution experiments. […] Sample radioactivity was measured on the γ-counter together with proper standards of the injected dose. Results were calculated as percentage of injected activity per gram tissue (%IA/g) and provided as mean %IA/g values ± sd. […]
Peptide text beside a SMILES is read from it. * marks the point of attachment. Palmitoyl = CCCCCCCCCCCCCCCC(=O)*; X1 = NCCNCC(CNCCN)C(=O)*
Measured property: tissue uptake at 4 h (%ID/g)
A number alone suffices; assume %ID/g.

Returns the measured tissue uptake at 4 h for the input compound. Input: CCCCCCCCCCCCCCCC(=O)NCCCC[C@H](NC(=O)C(CNCCN)CNCCN)C(=O)N[C@@H](CCCNC(=N)N)C(=O)N[C@@H](CCCNC(=N)N)C(=O)N1CCC[C@H]1C(=O)N[C@@H](Cc1ccc(O)cc1)C(=O)N[C@H](C(=O)N[C@@H](CC(C)C)C(=O)O)[C@@H](C)CC [[^99mTc]Tc-DT9, metal not drawn] (X1-K(Palmitoyl)RRPYIL-OH)
8.8

---

# Procedure summary: Biodistribution in SCID mice bearing AsPC-1 xenografts
# Type: in vivo
# Applied conditions: male, mouse, stomach, iv, 3 pmol, total radioactivity, 24 h pi, Controls, read-out: uptake in Stomach
Peptide text beside a SMILES is read from it. * marks the point of attachment. Palmitoyl = CCCCCCCCCCCCCCCC(=O)*; X1 = NCCNCC(CNCCN)C(=O)*
Measured property: tissue uptake at 24 h (%ID/g)
A number alone suffices; assume %ID/g.

Recorded tissue uptake at 24 h for CCCCCCCCCCCCCCCC(=O)NCCCC[C@H](NC(=O)C(CNCCN)CNCCN)C(=O)N[C@@H](CCCNC(=N)N)C(=O)N[C@@H](CCCNC(=N)N)C(=O)N1CCC[C@H]1C(=O)N[C@@H](Cc1ccc(O)cc1)C(=O)N[C@H](C(=O)N[C@@H](CC(C)C)C(=O)O)[C@@H](C)CC [[^99mTc]Tc-DT9, metal not drawn] (X1-K(Palmitoyl)RRPYIL-OH) , please?
1.73

---

# Procedure summary: Biodistribution in SCID mice bearing AsPC-1 xenografts
# Type: in vivo
# Applied conditions: male, mouse, heart, iv, total radioactivity, 4 h pi, Entresto+Lis, read-out: uptake in Heart
Peptide text beside a SMILES is read from it. * marks the point of attachment. Palmitoyl = CCCCCCCCCCCCCCCC(=O)*; X1 = NCCNCC(CNCCN)C(=O)*
Measured property: tissue uptake at 4 h (%ID/g)
Please give a number only; it is taken to be in %ID/g.

Find the recorded tissue uptake at 4 h belonging to CCCCCCCCCCCCCCCC(=O)NCCCC[C@H](NC(=O)C(CNCCN)CNCCN)C(=O)N[C@@H](CCCNC(=N)N)C(=O)N[C@@H](CCCNC(=N)N)C(=O)N1CCC[C@H]1C(=O)N[C@@H](Cc1ccc(O)cc1)C(=O)N[C@H](C(=O)N[C@@H](CC(C)C)C(=O)O)[C@@H](C)CC [[^99mTc]Tc-DT9, metal not drawn] (X1-K(Palmitoyl)RRPYIL-OH) and report it.
2.85

---

# Procedure summary: Biodistribution in SCID mice bearing AsPC-1 xenografts
# Format: in vivo
# Applied conditions: male, mouse, lungs, iv, total radioactivity, 4 h pi, Block (Entresto+Lis plus excess NT), read-out: uptake in Lungs
Peptide text beside a SMILES is read from it. * marks the point of attachment. Palmitoyl = CCCCCCCCCCCCCCCC(=O)*; X1 = NCCNCC(CNCCN)C(=O)*
Measured property: tissue uptake at 4 h (%ID/g)
Give a bare numeral; the unit %ID/g is implied.

Which tissue uptake at 4 h reading was recorded for the compound CCCCCCCCCCCCCCCC(=O)NCCCC[C@H](NC(=O)C(CNCCN)CNCCN)C(=O)N[C@@H](CCCNC(=N)N)C(=O)N[C@@H](CCCNC(=N)N)C(=O)N1CCC[C@H]1C(=O)N[C@@H](Cc1ccc(O)cc1)C(=O)N[C@H](C(=O)N[C@@H](CC(C)C)C(=O)O)[C@@H](C)CC [[^99mTc]Tc-DT9, metal not drawn] (X1-K(Palmitoyl)RRPYIL-OH) ?
8.46

---

# Procedure summary: Biodistribution in SCID mice bearing AsPC-1 xenografts
# Format: in vivo
# Applied conditions: male, mouse, intestines, iv, total radioactivity, 4 h pi, Block (Entresto+Lis plus excess NT), read-out: uptake in Intestines
Peptide text beside a SMILES is read from it. * marks the point of attachment. Palmitoyl = CCCCCCCCCCCCCCCC(=O)*; X1 = NCCNCC(CNCCN)C(=O)*
Measured property: tissue uptake at 4 h (%ID/g)
// note: answer is a bare numeric in %ID/g

Dear colleague, I am looking for the recorded tissue uptake at 4 h of the following compound: CCCCCCCCCCCCCCCC(=O)NCCCC[C@H](NC(=O)C(CNCCN)CNCCN)C(=O)N[C@@H](CCCNC(=N)N)C(=O)N[C@@H](CCCNC(=N)N)C(=O)N1CCC[C@H]1C(=O)N[C@@H](Cc1ccc(O)cc1)C(=O)N[C@H](C(=O)N[C@@H](CC(C)C)C(=O)O)[C@@H](C)CC [[^99mTc]Tc-DT9, metal not drawn] (X1-K(Palmitoyl)RRPYIL-OH)
6.27

---

# Procedure summary: Biodistribution in SCID mice bearing AsPC-1 xenografts
# Format: in vivo
# Applied conditions: male, mouse, spleen, iv, 3 pmol, total radioactivity, 4 h pi, Controls, read-out: uptake in Spleen
Peptide text beside a SMILES is read from it. * marks the point of attachment. Palmitoyl = CCCCCCCCCCCCCCCC(=O)*; X1 = NCCNCC(CNCCN)C(=O)*
Measured property: tissue uptake at 4 h
Quote the value and follow it with the unit of measurement.

Value lookup for tissue uptake at 4 h; key = CCCCCCCCCCCCCCCC(=O)NCCCC[C@H](NC(=O)C(CNCCN)CNCCN)C(=O)N[C@@H](CCCNC(=N)N)C(=O)N[C@@H](CCCNC(=N)N)C(=O)N1CCC[C@H]1C(=O)N[C@@H](Cc1ccc(O)cc1)C(=O)N[C@H](C(=O)N[C@@H](CC(C)C)C(=O)O)[C@@H](C)CC [[^99mTc]Tc-DT9, metal not drawn] (X1-K(Palmitoyl)RRPYIL-OH)
6.82 %ID/g

---

# Procedure summary: Biodistribution in SCID mice bearing AsPC-1 xenografts
# Assay type: in vivo
# Applied conditions: male, mouse, muscle, iv, total radioactivity, 4 h pi, Entresto+Lis, read-out: uptake in Muscle
Peptide text beside a SMILES is read from it. * marks the point of attachment. Palmitoyl = CCCCCCCCCCCCCCCC(=O)*; X1 = NCCNCC(CNCCN)C(=O)*
Measured property: tissue uptake at 4 h (%ID/g)
Only the number, expressed in %ID/g, is required.

Which tissue uptake at 4 h is listed for CCCCCCCCCCCCCCCC(=O)NCCCC[C@H](NC(=O)C(CNCCN)CNCCN)C(=O)N[C@@H](CCCNC(=N)N)C(=O)N[C@@H](CCCNC(=N)N)C(=O)N1CCC[C@H]1C(=O)N[C@@H](Cc1ccc(O)cc1)C(=O)N[C@H](C(=O)N[C@@H](CC(C)C)C(=O)O)[C@@H](C)CC [[^99mTc]Tc-DT9, metal not drawn] (X1-K(Palmitoyl)RRPYIL-OH) ?
0.81

---

# Procedure summary: Biodistribution in SCID mice bearing AsPC-1 xenografts
# Format: in vivo
# Applied conditions: male, mouse, muscle, iv, total radioactivity, 24 h pi, Entresto+Lis, read-out: uptake in Muscle
Peptide text beside a SMILES is read from it. * marks the point of attachment. Palmitoyl = CCCCCCCCCCCCCCCC(=O)*; X1 = NCCNCC(CNCCN)C(=O)*
Measured property: tissue uptake at 24 h (%ID/g)
Report only the number, with the unit %ID/g understood.

Which tissue uptake at 24 h is listed for CCCCCCCCCCCCCCCC(=O)NCCCC[C@H](NC(=O)C(CNCCN)CNCCN)C(=O)N[C@@H](CCCNC(=N)N)C(=O)N[C@@H](CCCNC(=N)N)C(=O)N1CCC[C@H]1C(=O)N[C@@H](Cc1ccc(O)cc1)C(=O)N[C@H](C(=O)N[C@@H](CC(C)C)C(=O)O)[C@@H](C)CC [[^99mTc]Tc-DT9, metal not drawn] (X1-K(Palmitoyl)RRPYIL-OH) ?
0.24
